System Under Test: H. contortus L-AChR1.1 with added UNC-29.2 (Haemonchus contortus, UniProt A9XX24+D6MYE9+D6MYF3+D6MYF4)
Assay Details: Two-electrode voltage clamp of L-AChR1.1 supplemented with unc-29.2 cRNA in Xenopus oocytes
Format: cell-based
Experimental Parameters: 29.1 : 29.2 cRNA 1 : 1
Counter-ions that a name gives are not always drawn.
Measured Attribute: EC50 (nM)
Answer with a number only, understood to be in nM.

Exercise: Retrieve EC50 measured for c1ccc([C@H]2CN3CCSC3=N2)cc1 [LEV, (-)-tetramisole hydrochloride] and print it.
Key: 2410

====

System Under Test: H. contortus L-AChR1.1 with added UNC-29.2 (Haemonchus contortus, UniProt A9XX24+D6MYE9+D6MYF3+D6MYF4)
Assay Details: Two-electrode voltage clamp of L-AChR1.1 supplemented with unc-29.2 cRNA in Xenopus oocytes
Assay type: cell-based
Experimental Parameters: 29.1 : 29.2 cRNA 1 : 5
Where a name gives a salt, the structure may show the parent alone.
Measured Attribute: pEC50
Entry type: numeric. Quantity: pEC50, the -log10 of concentration in molar units.

Exercise: Retrieve pEC50 measured for c1ccc([C@H]2CN3CCSC3=N2)cc1 [LEV, (-)-tetramisole hydrochloride] and print it.
Key: 5.43
